Parameter IC50, tested on UniProt:P23977, listed per item.
Sequence (P23977 whole entry): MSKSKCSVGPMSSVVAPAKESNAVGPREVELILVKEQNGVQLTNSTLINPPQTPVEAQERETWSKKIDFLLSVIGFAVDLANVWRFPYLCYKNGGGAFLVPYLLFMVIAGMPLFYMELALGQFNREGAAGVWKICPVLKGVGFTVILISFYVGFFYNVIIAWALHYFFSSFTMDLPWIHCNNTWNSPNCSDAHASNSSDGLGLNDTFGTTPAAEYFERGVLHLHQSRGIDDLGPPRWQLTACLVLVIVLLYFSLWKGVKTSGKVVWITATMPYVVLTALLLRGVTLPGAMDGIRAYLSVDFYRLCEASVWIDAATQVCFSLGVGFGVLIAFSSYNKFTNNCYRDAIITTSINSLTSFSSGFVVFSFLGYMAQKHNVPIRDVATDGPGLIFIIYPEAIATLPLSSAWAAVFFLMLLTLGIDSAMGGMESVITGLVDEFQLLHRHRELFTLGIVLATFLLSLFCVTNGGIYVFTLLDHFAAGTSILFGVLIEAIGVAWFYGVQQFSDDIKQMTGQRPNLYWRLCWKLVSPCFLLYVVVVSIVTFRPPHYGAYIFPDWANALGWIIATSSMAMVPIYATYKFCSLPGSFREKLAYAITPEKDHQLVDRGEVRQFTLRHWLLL
Answer with a number only, understood to be in nM.

Consider the worked cases shown below.
compound | IC50 [nM]
COc1ccc(NCC(O)CN2CCN(CCCC(c3ccc(F)cc3)c3ccc(F)cc3)CC2)cc1 (stereo not shown) [Compound 13] | 105
CC(C)(C)c1cc(NCC(O)CN2CCN(CCCC(c3ccc(F)cc3)c3ccc(F)cc3)CC2)cc(C(C)(C)C)c1O (stereo not shown) [Compound 22] | 306
Oc1ccc(NCC(O)CN2CCN(CCCC(c3ccc(F)cc3)c3ccc(F)cc3)CC2)cc1 (stereo not shown) [Compound 25] | 23.7
OC(CNc1ccncc1)CN1CCN(CCCC(c2ccc(F)cc2)c2ccc(F)cc2)CC1 (stereo not shown) [Compound 17] | 45
COC(=O)[C@H]1[C@@H](c2ccccc2)C[C@@H]2CC[C@H]1N2C [WIN35,065-2, reference compound] | 118
CC(=O)OC(CNc1ccccc1)CN1CCN(CCCC(c2ccc(F)cc2)c2ccc(F)cc2)CC1 (stereo not shown) [Compound 7] | 41.2

Next compound, please.
Ask: Given the entry OC(CNCc1ccccc1)CN1CCN(CCCC(c2ccc(F)cc2)c2ccc(F)cc2)CC1 (stereo not shown) [Compound 3] , what IC50 was observed with UniProt:P23977?
Reply: 31.7

Recorded values, source patent US6100280A.
